B1: 2M8U (parent)
chain: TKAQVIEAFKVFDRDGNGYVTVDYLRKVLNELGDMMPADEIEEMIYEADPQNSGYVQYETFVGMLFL

Variants of: B1
Assay: folding stability dG (cDNA display proteolysis); higher = more stable
Conditions: PBS, room temperature
Label class 1 when folding stability dG is at or above 3 kcal/mol; anything below gets class 0.

>  <Variant key>
L29Q

>  <Assigned label>
class 0

$$$$
>  <Variant key>
Y55V

>  <Assigned label>
class 1

$$$$
>  <Variant key>
V22G

>  <Assigned label>
class 0

$$$$
>  <Variant key>
Q57G

>  <Assigned label>
class 0

$$$$
>  <Variant key>
Y24E

>  <Assigned label>
class 1

$$$$
>  <Variant key>
V28L

>  <Assigned label>
class 0

$$$$
>  <Variant key>
I6W

>  <Assigned label>
class 0

$$$$
>  <Variant key>
R26E

>  <Assigned label>
class 0

$$$$
>  <Variant key>
G63M

>  <Assigned label>
class 1

$$$$
>  <Variant key>
M44A

>  <Assigned label>
class 1

$$$$
>  <Variant key>
E40K

>  <Assigned label>
class 1

$$$$
>  <Variant key>
V11G

>  <Assigned label>
class 1

$$$$
>  <Variant key>
D49L

>  <Assigned label>
class 0

$$$$
>  <Variant key>
E42N

>  <Assigned label>
class 1

$$$$
>  <Variant key>
V20M

>  <Assigned label>
class 0

$$$$
>  <Variant key>
F66P

>  <Assigned label>
class 0

$$$$
>  <Variant key>
E42P

>  <Assigned label>
class 0

$$$$
